Recorded values, source the nanobody polyreactivity screen of Harvey et al. (2022).

# EXPERIMENTAL_DETAILS: yeast display, Sf9 membrane polyspecificity reagent, FACS + sequencing; frameworks hold sequencing errors
RECORDED_ENDPOINT: polyreactivity (PSR sort gate)

# count of solved cases: 4
QVQLVESGGGLVQAGGSLRLSCAASGLTLKRYAMGWYRQAPGKERELVAAISTRGGSTYYADSVKGRFTISRDNAKNTVYLQMNSLKPEDTAVYYCAAGDYWGQGTQVTVSS : high polyreactivity
QVQLVDTGGGLVQAGGSLRLSCAASGSIFHNNSRGWYRQATGKERELVAAIRRSGGSTSYADSVKGRFTISLDNAKNTVYLQMNSLKPEDTAVYYCNKRFVRFSPEYGYWGQGNQVTVSS : low polyreactivity
QVQLVESGGGLVQAGGSLRLSCAASGSTFPSYAMGWYRQAPGKERELVAAISRSGGSTYYADSVKGRFTISRDNAKNTVYLQMNSLKPEDTAVYYCAARGHLRYESDYWGQGTQVTVSS : high polyreactivity
HVQLVESGGGLVQAGGSLRLSCAASGYILDRNAMGWYRQAPGKESELVAVISWGGTRTYYADSVKGRFTISRDNAKNTVYLQMNSLKPEVTAVYYCARYPYYYGYAGRYDYWGQGTQVTVSS : high polyreactivity

Q: State its polyreactivity (PSR sort gate) for this sequence: `QVQLVESGGGLVQAGGSLRLSCAASGRIFGRYAMGWYRQAPGKEREVVATITRNGGGTYADSVKGRFTISRDNAKNTVYLQMNSLKPEDTAVYYCAVDTAAAWERRGFDSWGQGTQVTVSS`
Result: low polyreactivity
